# System tested: human PXR (Homo sapiens (Human))
# Sequence (O75469 whole entry): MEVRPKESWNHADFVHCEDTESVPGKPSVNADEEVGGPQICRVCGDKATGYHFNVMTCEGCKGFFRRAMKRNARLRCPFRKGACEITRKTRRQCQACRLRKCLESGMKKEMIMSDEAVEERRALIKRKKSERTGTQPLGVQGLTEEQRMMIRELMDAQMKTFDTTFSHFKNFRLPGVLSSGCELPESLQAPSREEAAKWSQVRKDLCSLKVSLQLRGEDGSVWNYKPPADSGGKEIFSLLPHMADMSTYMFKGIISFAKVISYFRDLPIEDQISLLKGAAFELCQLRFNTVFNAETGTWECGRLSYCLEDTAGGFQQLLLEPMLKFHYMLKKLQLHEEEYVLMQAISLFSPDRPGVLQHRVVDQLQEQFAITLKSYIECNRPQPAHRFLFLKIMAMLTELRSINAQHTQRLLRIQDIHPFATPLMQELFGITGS
# Experiment: Evaluation of activation of human pregnane X receptor (PXR), DPX2 cells
# Type: cell-based
# Details: compound 10 μM, 48 hours, emission intensity divided by fluorescence intensity
Reported endpoint: PXR 10 μM

Would you please look over these solved cases?
{"columns": ["Compound", "System tested", "Reported endpoint", "Result"],
 "data": [
  ["COc1ccc(NC2=NC(=O)N(C)C3=NCC(c4cc(F)c(F)c(F)c4)N23)c(C)c1 (stereo not shown) [Compound I-0135]", "human PXR (Homo sapiens (Human))", "PXR 10 μM", 3],
  ["Cc1cc(F)c(CO)cc1NC1=NC(=O)N(C)C2=NCC(c3cc(F)c(F)c(F)c3)N12 (stereo not shown) [Compound I-0168]", "human PXR (Homo sapiens (Human))", "PXR 10 μM", 0.9],
  ["Cc1ccc(CO)cc1NC1=NC(=O)N(C)C2=NCC(c3cc(F)c(F)c(F)c3)N12 (stereo not shown) [Compound I-0161]", "human PXR (Homo sapiens (Human))", "PXR 10 μM", 1.2]
]}

Turning now to a further compound:
Which PXR 10 μM value belongs to CN1C(=O)N=C(NCc2ccccc2)N2C1=NCC2c1cc(F)c(F)c(F)c1 (stereo not shown) [Compound I-0188] ?
1.3
